For each of the binders below, state its Neutralization IC50.
Biological target: SARS-CoV-2 spike protein on HIV-1 pseudotyped particles (SARS-CoV-2, UniProt P0DTC2 14-1254)
Experiment: cell-based or functional assay
Please reply with the bare figure in µg/mL and do not write the unit itself.

Quick check: Neutralization IC50 of C049 (antibody, V domains shown) VH: QVQLQESGPGLVKPSETLSLTCTVSGGSVSSGTFYWSWIRQPPGKGLEWIGYIHYSGSTNYNPSLKSRVTISVDTSKNQFSLRLSSVTAADTAVYYCARESFYYDRSGYYGSDAFDIWGQGTMVTVSS VL: DIQMTQSPSTLSSSVGDRVTITCRASQNISRWLAWYQQKPGKAPKLLIYKASTLESGVPSRFSGSGSGTKFTLTISSLQPDDFATYYCQQYNSYLYTFGQGTKLEIK ?
0.0181

Next binder: C099 (antibody, V domains shown) VH: EVQLVESGGGLIQPGGSLRLSCAASGITVSSNYMSWVRQAPGKGLEWVSVMYAGGSTFYADSVKGRFTISRDDSKNTLFLQMNSLRAEDTAIYYCARDLYSSGGTDIWGQGTMVTVSS VL: EIVLTQSPGTLSLSPGERATLSCRASQSIGSSYLAWYQQKPGLAPRLLIYGASRRATGIPDKFSGSGSGADFTLTISRLEPEDFAVYYCQQYGSSPGTFGQGTKVEIK
0.0272
